src = patent EP3173421A1

System: Colistin-resistant A. baumannii CR49
Format: cell-based
Where a SMILES comes first, the peptide text is derived from it. Bridges are numbered along the chain shown (N, C = ends). [ ]: non-standard residue; d: D form. The star is where a group is joined. ξ: configuration not given here. dAoc(2) = CCCCCC[C@@H](N)C(=O)O; ξLac(3-iPr) = CC(C)CC(O)C(=O)O; Heptanoyl = CCCCCCC(=O)*; Nle = CCCC[C@H](N)C(=O)O; Octanoyl = CCCCCCCC(=O)*; Dab = NCC[C@H](N)C(=O)O
Listed compounds paired with reported MIC
The answer is to be given in µg/mL; state only the numeric part.

Below, each entry is followed by its recorded MIC result.
compound: CCCCCCCC(=O)N[C@@H](CCN)C(=O)N[C@H](C(=O)N[C@@H](CCN)C(=O)N[C@H]1CSSC[C@H](C(N)=O)NC(=O)[C@H](CCN)NC(=O)[C@H](CCN)NC(=O)C(CC(C)C)OC(=O)[C@@H](CCCCCC)NC(=O)[C@H](CCN)NC1=O)[C@@H](C)O (stereo partly shown) [Example 4] (Octanoyl-[Dab]T[Dab]C[Dab][dAoc(2)][ξLac(3-iPr)][Dab][Dab][dC]-NH2; disulfide 4-10)
MIC / µg/mL: 16

compound: CCCCCCC(=O)N[C@@H](CCN)C(=O)N[C@H](C(=O)N[C@@H](CCN)C(=O)N[C@H]1CSSC[C@H](C(N)=O)NC(=O)[C@H](CCN)NC(=O)[C@H](CCN)NC(=O)C(CC(C)C)OC(=O)[C@@H](CCCCCC)NC(=O)[C@H](CCN)NC1=O)[C@@H](C)O (stereo partly shown) [Example 2] (Heptanoyl-[Dab]T[Dab]C[Dab][dAoc(2)][ξLac(3-iPr)][Dab][Dab][dC]-NH2; disulfide 4-10)
MIC / µg/mL: 16

compound: CCCCCC[C@@H](N)C(=O)N[C@H](C(=O)N[C@@H](CCN)C(=O)N[C@H]1CSSC[C@H](C(N)=O)NC(=O)[C@H](CCN)NC(=O)[C@H](CCN)NC(=O)C(CC(C)C)OC(=O)[C@@H](CCCCCC)NC(=O)[C@H](CCN)NC1=O)[C@@H](C)O (stereo partly shown) [Example 3] (H-[dAoc(2)]T[Dab]C[Dab][dAoc(2)][ξLac(3-iPr)][Dab][Dab][dC]-NH2; disulfide 4-10)
MIC / µg/mL: 8

Would you kindly look at the next entry?
Inquiry: Assign MIC to the following record: CCCCCCC(=O)N[C@@H](Cc1c[nH]cn1)C(=O)N[C@H](C(=O)N[C@@H](CCN)C(=O)N[C@H]1CSSC[C@H](C(N)=O)NC(=O)[C@H](Cc2c[nH]cn2)NC(=O)[C@H](CCN)NC(=O)[C@H](CCCC)NC(=O)[C@@H](CCCCCC)NC(=O)[C@H](CCN)NC1=O)[C@@H](C)O [Example 6] (Heptanoyl-HT[Dab]C[Dab][dAoc(2)][Nle][Dab]H[dC]-NH2; disulfide 4-10)
Reply text: 4
